Target: rat SERT (Rattus norvegicus, UniProt P31652)
Construct: from tissue; host or cells: rat striatum (membranes)
Sequence (P31652 whole entry): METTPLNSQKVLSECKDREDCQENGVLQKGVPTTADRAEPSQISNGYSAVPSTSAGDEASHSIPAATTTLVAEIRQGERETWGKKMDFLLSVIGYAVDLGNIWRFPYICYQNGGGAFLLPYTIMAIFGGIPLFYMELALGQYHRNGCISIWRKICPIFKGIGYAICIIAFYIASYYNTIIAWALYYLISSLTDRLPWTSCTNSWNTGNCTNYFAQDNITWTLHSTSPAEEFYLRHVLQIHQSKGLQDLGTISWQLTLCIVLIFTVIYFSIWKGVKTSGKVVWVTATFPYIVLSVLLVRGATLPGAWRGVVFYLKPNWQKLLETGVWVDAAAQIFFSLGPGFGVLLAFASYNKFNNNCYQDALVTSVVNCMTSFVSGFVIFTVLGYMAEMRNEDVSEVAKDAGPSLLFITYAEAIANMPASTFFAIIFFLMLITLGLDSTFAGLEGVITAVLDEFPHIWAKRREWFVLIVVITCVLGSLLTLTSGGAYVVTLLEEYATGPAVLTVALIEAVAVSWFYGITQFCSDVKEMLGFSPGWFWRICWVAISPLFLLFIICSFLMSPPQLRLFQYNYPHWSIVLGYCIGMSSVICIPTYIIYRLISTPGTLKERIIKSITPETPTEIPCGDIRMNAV
Test: Rat SERT binding, [3H]citalopram, striatal membranes
Conditions: read-out: SERT, IC50
parameter: pIC50
Please report pIC50 as the negative decimal logarithm of the molar concentration, giving only the number.

// sample N#Cc1ccc(CN2CCC(CCOC(c3ccccc3)c3ccccc3)CC2)cc1 , its pIC50 was 5.64

###

This section presents compounds with their documented log10(IC50) values.
Biological target: UniProt P23977
Sequence (P23977 whole entry): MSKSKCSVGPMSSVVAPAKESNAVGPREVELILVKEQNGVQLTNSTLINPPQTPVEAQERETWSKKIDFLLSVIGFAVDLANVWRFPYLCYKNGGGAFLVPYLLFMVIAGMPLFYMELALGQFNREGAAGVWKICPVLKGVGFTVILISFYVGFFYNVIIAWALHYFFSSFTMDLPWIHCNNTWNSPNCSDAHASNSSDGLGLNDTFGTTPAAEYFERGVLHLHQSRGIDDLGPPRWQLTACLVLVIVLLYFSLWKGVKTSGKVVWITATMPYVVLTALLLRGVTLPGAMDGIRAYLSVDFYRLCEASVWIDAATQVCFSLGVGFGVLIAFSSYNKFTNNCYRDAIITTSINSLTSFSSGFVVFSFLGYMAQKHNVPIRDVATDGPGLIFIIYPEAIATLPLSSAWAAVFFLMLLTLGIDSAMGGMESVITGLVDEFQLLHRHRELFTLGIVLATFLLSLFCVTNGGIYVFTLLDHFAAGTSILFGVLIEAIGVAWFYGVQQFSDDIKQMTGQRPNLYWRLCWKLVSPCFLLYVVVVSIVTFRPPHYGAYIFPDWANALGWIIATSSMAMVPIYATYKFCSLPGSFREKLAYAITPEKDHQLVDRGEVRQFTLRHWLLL
Assay: Rat DAT binding, [3H]Win 35,428, striatal membranes
Conditions: read-out: DAT, IC50; Table 1
Use the decimal logarithm of IC50 (µM).

Consider the worked cases shown below.
{"compound": "Fc1ccc(CN2CCC(CCOC(c3ccccc3)c3ccccc3)CC2)cc1F", "log10(IC50)": -2.00}
{"compound": "CN(CC1CCN(Cc2ccc(F)cc2)CC1)CC(c1ccccc1)c1ccccc1", "log10(IC50)": -1.03}
{"compound": "CS(=O)(=O)Nc1ccc(CN2CCC(CCOC(c3ccccc3)c3ccccc3)CC2)cc1", "log10(IC50)": -1.58}
{"compound": "Ic1ccc(CN2CCC(CCOC(c3ccccc3)c3ccccc3)CC2)cc1", "log10(IC50)": -3.02}
{"compound": "CC(NCCC1CCN(Cc2ccc(F)cc2)CC1)c1ccccc1 (stereo not drawn)", "log10(IC50)": -0.53}

Would you kindly look at the next entry?
The compound identified as Oc1cccc(CN2CCC(CCOC(c3ccccc3)c3ccccc3)CC2)c1 registered its log10(IC50) at -1.84
